Here's a roundup of Ki values tested on Prothrombin (Homo sapiens, UniProt P00734), taken from various published works.

Guide cases for Ki, answers given:
CC(C)CC(=O)N1CCC[C@H]1C(=O)NCc1cccc(Cl)c1 :: 191000 nM
Cc1nc(C(=O)C(NC(=O)[C@@H]2CC[C@H]3CN(S(=O)(=O)Cc4ccccc4)CC(=O)N32)[C@H]2CC[C@H](N)CC2)sc1C(=O)O (some centres undefined) :: 80 nM
COc1ccc(-n2nc(C(F)(F)F)c3c2C(=O)N(c2ccc(N(C)C)cc2)CC3)cc1 :: > 13400 nM
CC(=O)Nc1ccc(S(=O)(=O)NN=C(N)N)cc1 :: 172 nM
COC(=O)CC(=O)N(Cc1ccccc1)c1ccc2c(c1)OC(Cc1ccc(C(=N)N)cc1)C(=O)N2C (centres undefined) :: 3.4 nM

Lookup: Ki / Prothrombin (Homo sapiens, UniProt P00734) / `COC(=N)NS(=O)(=O)c1cccc(N)c1`
99 nM

Lookup: Ki / Prothrombin (Homo sapiens, UniProt P00734) / `CS(=O)(=O)Nc1ccc(Oc2cccc(C(=N)N)c2)nc1Oc1cccc(C(=N)N)c1`
> 5000 nM

Lookup: Ki / Prothrombin (Homo sapiens, UniProt P00734) / `N=C(N)c1cccc(Oc2cc(C(N)=O)cc(Oc3cccc(C(=N)N)c3)n2)c1`
6000 nM

Lookup: Ki / Prothrombin (Homo sapiens, UniProt P00734) / `O=C(Cn1c(Cl)cnc(NCC(F)(F)c2ccccn2)c1=O)NCc1ccccc1-n1cnnn1`
0.096 nM

---

Here's a roundup of Ki values tested on Prothrombin (Homo sapiens), taken from various published works.
So basically, if Ki comes in under 1000 nM it's criterion met, and if it's 1000 nM or more it's criterion not met.

In the record for `N=C(N)c1cccc(C[C@H](NS(=O)(=O)c2cccc(NC(=O)CCN)c2)C(=O)N2CCC(CCCC(=O)O)CC2)c1` , is Ki less than 1000 nM?
criterion not met

In the record for FC(F)(F)CN1CCCCC1CCNc1nccc2oc(Cc3cc(Cl)ccc3-n3cncn3)nc12 (stereo not drawn) , is Ki less than 1000 nM?
criterion met

In the record for `Cc1cccc(NC(=O)c2sc3ccccc3c2Cl)c1C(=O)Nc1ccc(Cl)cc1` , is Ki less than 1000 nM?
criterion not met

In the record for `N=C(N)c1ccc(CNc2ccc3ccn(-c4ccc(C(=N)N)cc4)c3c2)cc1` , is Ki less than 1000 nM?
criterion not met

In the record for `N=C(N)c1ccc(OC[C@@H]2COc3cc(N(Cc4ccccc4)C(=O)C(=O)O)ccc3O2)cc1` , is Ki less than 1000 nM?
criterion not met

In the record for `CCNc1cccc(Oc2nc(Oc3cccc(C(=N)N)c3)c(F)c(C)c2F)c1` , is Ki less than 1000 nM?
criterion not met

In the record for `CN(CCN1CCCC1)Cc1csc(C(=O)Nc2ccc(Cl)cc2C(=O)Nc2ccc(Cl)cc2)c1Cl` , is Ki less than 1000 nM?
criterion met

In the record for CCOc1cc(C(Nc2ccc3c(N)nccc3c2)C(=O)NS(=O)(=O)c2ccc(N)cc2)ccc1OC(C)C (stereo not drawn) , is Ki less than 1000 nM?
criterion not met

In the record for `CN[C@H](Cc1ccccc1)C(=O)N1CCC[C@H]1C(=O)N[C@@H](CCCN=C(N)N)C(=O)c1nccn1C` , is Ki less than 1000 nM?
criterion met
